Reported kon values are given for each entry in this list.
Target: T1, DcR3 FL-Fc (R&D Systems, Inc.) (human, UniProt O95407 30-300)
T1 construct: Bought product made in insect cells; also called DcR3-Fc (R&D Systems, Inc.); DcR3 FL-Fc (IgG1)
T1 sequence: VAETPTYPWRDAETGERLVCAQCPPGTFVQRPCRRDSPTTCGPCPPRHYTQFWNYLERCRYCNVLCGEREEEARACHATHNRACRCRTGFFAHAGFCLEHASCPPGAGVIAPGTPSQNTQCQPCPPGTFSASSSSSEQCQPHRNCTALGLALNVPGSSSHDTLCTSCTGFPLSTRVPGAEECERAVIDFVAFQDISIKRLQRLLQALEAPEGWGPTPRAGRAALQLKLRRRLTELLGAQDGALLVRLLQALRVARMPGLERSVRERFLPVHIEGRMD
Test: SPR, binder captured
Expressed in M⁻¹ s⁻¹, but write only the number.

**Query** # kon lookup, item soluble recombinant of mouse TL1A (His6, GS linker, Ile94-Leu270) (ligand) HHHHHHGGGSGGGSGGGSITEERSEPSPQQVYSPPRGKPRAHLTIKKQTPAPHLKNQLSALHWEHDLGMAFTKNGMKYINKSLVIPESGDYFIYSQITFRGTTSVCGDISRGRRPNKPDSITMVITKVADSYPEPARLLTGSKSVCEISNNWFQSLYLGATFSLEEGDRLMVNVSDISLVDYTKEDKTFFGAFLL
**Result** 840000

***
**Query** # lookup: kon of soluble recombinant of cynomolgus monkey FasL (His6, Pro133-Leu280) (ligand, also called His6-cynoFasL) PSPPPEKKEQRKVAHLTGKPNSRSMPLEWEDTYGIVLLSGVKYKKGGLVINETGLYFVYSKVYFRGQSCTNLPLSHKVYMRNSKYPQDLVMMEGKMMSYCTTGQMWAHSSYLGAVFNLTSADHLYVNVSELSLVNFEESQTFFGLYKL
**Result** 300000

**Query** # query: kon of entry soluble recombinant of human LIGHT (His10, GS linker, Asp74-Val240) (ligand) HHHHHHHHHHGGGSGGGSGGGSIEGRDGPAGSWEQLIQERRSHEVNPAAHLTGANSSLTGSGGPLLWETQLGLAFLRGLSYHDGALVVTKAGYYYIYSKVQLGGVGCPLGLASTITHGLYKRTPRYPEELELLVSQQSPCGRATSSSRVWWDSSFLGGVVHLEAGEKVVVRVLDERLVRLRDGTRSYFGAFMV
**Result** 380000
